- TEST METHOD NOTES: NCI Yeast Anticancer Drug Screen. Data for the mlh1 rad18 strain (AID 175)
- CONDITIONS: S. cerevisiae mlh1 rad18 strain growth inhibition; at 50.0 µM; stronger effect = higher value
This is part of a sample that, as a whole, favours compounds with a hit. Of some 79,000 tested, about 15% had one in any assay.
Collected growth inhibition values appear next to each entry.
Write the value in % as a bare number.

COMPOUND	OUTCOME MEASURE	RECORDED MEASUREMENT
Cn1c(=O)c2[nH]c(=S)n(CC3CCCCC3)c2n(C)c1=O	growth inhibition	17.4
CN(C)CCCN1CC2C3CCCCC3=C3CCCCC3C2C1 (configuration not stated)	growth inhibition	-16.9
Cc1cc(C(C)(C)C)ccc1S(=O)(=O)/C=C/c1ccccc1	growth inhibition	-26.1
COc1cc(N=C2C=CC(=O)C=C2)c2ncccc2c1	growth inhibition	3.75
CCOC(=O)c1cc2c(cn1)[nH]c1cccc(N)c12	growth inhibition	-9.55
CCCCc1c2c(nc3c1CCc1cc4cc5c(nc4nc1-3)-c1nc3c(c(CCCC)c1CC5)CCCC3)CCCC2	growth inhibition	29.4

## Input Quickly give me recorded growth inhibition for `S=C(Sc1nc2ccccc2s1)Sc1nc2ccccc2s1`
## Output 90.7

## Input Quickly give me recorded growth inhibition for `CNC(=S)SSSC(=S)NC`
## Output 5.55

## Input Quickly give me recorded growth inhibition for `O=C1c2cc([N+](=O)[O-])ccc2-c2c(S)cccc21`
## Output -16.3

###

- TEST METHOD NOTES: NCI Yeast Anticancer Drug Screen. Data for the mlh1 rad18 strain (AID 175)
- CONDITIONS: S. cerevisiae mlh1 rad18 strain growth inhibition; at 50.0 µM; stronger effect = higher value
This is part of a sample that, as a whole, favours compounds with a hit. Of some 79,000 tested, about 15% had one in any assay.
Please use true (1) whenever growth inhibition is not below 10%, and false (0) whenever it is.

Look over these answered cases.
COMPOUND	DISCRETE LABEL
CCCCCCCNc1nc(N)nc(Cl)n1	true (1)
CCC(C)(C)c1ccc([N+](=O)[O-])cc1	false (0)
CC(C)=CCOc1ccc(-c2coc3cc4c(c(O)c3c2=O)C=CC(C)(C)O4)cc1	true (1)
CN(C)CCn1cnc2sc3ccccc3c21	false (0)

## Input Reported growth inhibition at or above 10%? ClC(Cl)(Cl)CC(Br)c1ccccc1 (configuration not stated)
## Output false (0)

## Input Reported growth inhibition at or above 10%? `COP(=O)(OC)/C(=C\c1cn(C(c2ccccc2)(c2ccccc2)c2ccccc2)cn1)NC(C)=O`
## Output false (0)

## Input Reported growth inhibition at or above 10%? `COC(=O)/C(C#N)=C/c1cccnc1`
## Output false (0)

###

Collected growth inhibition values appear next to each entry.
- TEST METHOD NOTES: NCI Yeast Anticancer Drug Screen. Data for the mlh1 rad18 strain (AID 175)
- CONDITIONS: S. cerevisiae mlh1 rad18 strain growth inhibition; at 50.0 µM; stronger effect = higher value
About 79,000 compounds went through this panel and 15% of them were active in at least one assay; those are over-represented in the sample as a whole.
Write the value in % as a bare number.

Solved cases below.
COMPOUND	RESULT UNITS	RECORDED MEASUREMENT
C[N+](C)(C)CC(=O)N/N=C(/Cc1cc(=O)oc2cc(O)ccc12)C(=O)Nc1ccc(Cl)cc1	%	-10.8
CCN(CC)c1ccc2cc(-c3nc4ccccc4[nH]3)c(=O)oc2c1	%	2.55
Cn1c(=O)c2ccccc2[n+]2c(-c3cccc([N+](=O)[O-])c3)csc12	%	-9
CC(=O)OC1OCCCC1Cl (stereo unspecified)	%	10.3

## Input Quickly give me recorded growth inhibition for CCOC(=O)COc1cc2c(cc1C(C)c1cc(OC)c(OC)c(OC)c1)OCO2 (stereo unspecified)
## Output 10.9

## Input Quickly give me recorded growth inhibition for `C(=N\NC1=NCCCN1)/c1ccc2ccccc2c1`
## Output 1.15
